Tested on: T1, P-cadherin-ECD1-3-Fc protein (human P-cadherin-Fc) (human, UniProt P22223 108-440)
T1 construct: Construct was expressed with signal peptide and pro-peptide (PACE co-transfected to process the propeptide); not shown: hinge and CH2 and CH3 domains of human IgG1
T1 sequence (P22223 108-440): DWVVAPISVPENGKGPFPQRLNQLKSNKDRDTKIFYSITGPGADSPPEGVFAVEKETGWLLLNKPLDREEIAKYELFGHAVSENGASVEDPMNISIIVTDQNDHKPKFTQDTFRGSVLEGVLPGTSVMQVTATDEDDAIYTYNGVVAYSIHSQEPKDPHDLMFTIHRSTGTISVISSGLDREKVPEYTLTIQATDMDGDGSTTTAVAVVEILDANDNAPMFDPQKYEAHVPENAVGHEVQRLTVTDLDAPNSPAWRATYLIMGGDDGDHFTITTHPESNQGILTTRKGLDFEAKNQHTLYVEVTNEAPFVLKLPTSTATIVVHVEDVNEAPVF
Procedure summary: phage scFv ELISA, coated P-cadherin-ECD1-3-Fc
Known Human P-cadherin-Fc binding (OD450) of a selection of binders
Measured attribute: Human P-cadherin-Fc binding (OD450)

* anti-P-cadherin scFv 153 alanine-mutant L1.3-Ala (scFv, V domains shown, scFv on phage) VH: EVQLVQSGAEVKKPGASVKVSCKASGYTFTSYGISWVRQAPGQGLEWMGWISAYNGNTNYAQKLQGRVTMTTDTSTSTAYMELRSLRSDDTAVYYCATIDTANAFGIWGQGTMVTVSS VL: QSVLTQPPSVSAAPGQKVTISCSGASSNIGNNYVSWYQQLPGTAPKLLIYDNNKRPSGIPDRFSGSKSGTSATLGITGLQTGDEADYYCGTWDSSLSGVVFGGGTKLTVL | 2.19
* anti-P-cadherin scFv 153 alanine-mutant L1.4-Ala (scFv, V domains shown, scFv on phage) VH: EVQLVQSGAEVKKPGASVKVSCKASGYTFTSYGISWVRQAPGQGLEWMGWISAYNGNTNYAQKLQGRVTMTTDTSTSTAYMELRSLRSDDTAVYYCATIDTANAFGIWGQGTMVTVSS VL: QSVLTQPPSVSAAPGQKVTISCSGSASNIGNNYVSWYQQLPGTAPKLLIYDNNKRPSGIPDRFSGSKSGTSATLGITGLQTGDEADYYCGTWDSSLSGVVFGGGTKLTVL | 2.31
